Answer each item with its documented Half-life.
Test: Determination of carbodiimide half-life by IR spectroscopy (reaction with acetic acid in xylene)
Assay type: physicochemical
Conditions: time for 50% of the carbodiimide compound to react with acetic acid in xylene at 23±2°C; carbodiimide absorption at 2100-2200 cm^-1
Numbers only, in h.

Cc1ccc(N=C=Nc2ccc(C)cc2)cc1 [1,3-Di-p-tolylcarbodiimide] ... 2
CC(C)c1cccc(C(C)C)c1N=C=Nc1c(C(C)C)cccc1C(C)C [Bis(2,6-diisopropylphenyl) carbodiimide] ... 30
C(=NC1CCCCC1)=NC1CCCCC1 [1,3-Dicyclohexylcarbodiimide] ... 0.25
CC(C)N=C=NC(C)C [1,3-Diisopropylcarbodiimide] ... 0.75

Would you kindly look at the next entry?
Query block: So what does the record say about Half-life for Cc1ccccc1N=C=Nc1ccccc1C [1,3-Di-o-methylphenylcarbodiimide] ?
Result block: 3

All values here come from patent EP2725073B1.
